Molecular target: C-C chemokine receptor type 2 (Homo sapiens) (UniProt P41597)
Sequence (P41597 whole entry, looked up): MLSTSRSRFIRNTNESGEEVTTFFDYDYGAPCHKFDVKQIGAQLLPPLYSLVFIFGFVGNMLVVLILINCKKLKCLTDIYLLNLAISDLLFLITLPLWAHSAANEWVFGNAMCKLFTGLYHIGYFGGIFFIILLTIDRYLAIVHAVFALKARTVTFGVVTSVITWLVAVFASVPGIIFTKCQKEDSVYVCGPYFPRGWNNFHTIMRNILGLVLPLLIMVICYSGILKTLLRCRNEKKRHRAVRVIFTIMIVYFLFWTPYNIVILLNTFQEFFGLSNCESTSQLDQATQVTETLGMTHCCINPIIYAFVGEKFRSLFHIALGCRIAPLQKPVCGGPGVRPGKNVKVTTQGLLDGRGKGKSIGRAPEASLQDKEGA
Assay: Antagonist activity at CCR2 in human THP1 cells assessed as inhibition of CCL2-induced chemotaxis at 10 nM after 2 hrs by microtiter format trans-well migration assay
Format: functional, cell-based
Settings: THP-1
property name: inhibition
Just the number plus its unit, please.

The recorded inhibition with C-C chemokine receptor type 2 (Homo sapiens) (UniProt P41597) for O=C1NCCCC[C@H]1NC(=O)C12CC3CC(CC(C3)C1)C2 was 98%

GET /values?item= CCCCCCCCCCC(C)(C)C(=O)N[C@H]1CCCCNC1=O &system= C-C chemokine receptor type 2 (Homo sapiens) (UniProt P41597) returns inhibition: 96%

Form field inhibition for item O=C1NCCCC[C@@H]1NC(=O)C12CC3CC(CC(C3)C1)C2 on C-C chemokine receptor type 2 (Homo sapiens) (UniProt P41597): 100%

Record for CCCCCCCCCCC(C)(C)C(=O)N[C@@H]1CCCCNC1=O under target or system C-C chemokine receptor type 2 (Homo sapiens) (UniProt P41597): inhibition reported as 69%

Response field inhibition (C-C chemokine receptor type 2 (Homo sapiens) (UniProt P41597)) for item CC1(C(=O)N[C@H]2CCCCNC2=O)CCCCC1 : 100%

Here CC(C)(C)C(=O)N[C@H]1CCCCNC1=O was tested on C-C chemokine receptor type 2 (Homo sapiens) (UniProt P41597), and its inhibition came to 102%
